The measured values listed here are drawn from the supplement of paper PMC11061612.

# Test system: TT2609-C02 (Thyroid Gland Carcinoma)
# assayNotes: Bliss excess, mean over the matrix (fraction); higher = more synergy;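 further: after 72 h of two-drug dosing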

- compound: "COc1nnc2ccc(N3CCC(c4ccc(OCCN5CCN(C)C(=O)[C@H]5C)cc4)CC3)nn12 [AZD5153] + C=CCn1c(=O)c2cnc(Nc3ccc(N4CCN(C)CC4)cc3)nc2n1-c1cccc(C(C)(C)O)n1 [AZD1775] (first compound max 1 µM, partner max 1 µM)"
  experimentalSystem: "TT2609-C02 (Thyroid Gland Carcinoma)"
  Bliss excess: -0.0508
- compound: "Cn1cnc2c(F)c(Nc3ccc(Br)cc3Cl)c(C(=O)NOCCO)cc21 [Selumetinib] + CCN(CCO)CCCOc1ccc2c(Nc3cc(CC(=O)Nc4cccc(F)c4)[nH]n3)ncnc2c1 [AZD2811] (first compound max 10 µM, 7x7, partner max 1 µM)"
  experimentalSystem: "TT2609-C02 (Thyroid Gland Carcinoma)"
  Bliss excess: 0.0055
- compound: "Cn1cnc2c(F)c(Nc3ccc(Br)cc3Cl)c(C(=O)NOCCO)cc21 [Selumetinib] + C[C@@H]1COCCN1C2=NC(=NC(=C2)C3(CC3)[S@](=N)(=O)C)C4=C5C=CNC5=NC=C4 [AZD6738] (first compound max 10 µM, 7x7, partner max 10 µM)"
  experimentalSystem: "TT2609-C02 (Thyroid Gland Carcinoma)"
  Bliss excess: 0.0773
- compound: "NC1(C(=O)N[C@@H](CCO)c2ccc(Cl)cc2)CCN(c2ncnc3[nH]ccc23)CC1 [Capivasertib] + CC(C)n1c(=O)n(C)c2cnc3cc(F)c(-c4ccc(OCCCN5CCCCC5)nc4)cc3c21 [AZD1390] (first compound max 10 µM, 7x7, partner max 0.3 µM)"
  experimentalSystem: "TT2609-C02 (Thyroid Gland Carcinoma)"
  Bliss excess: -0.0609

---

Some molecules, each annotated with its measured Bliss excess.
# Test system: A549 (Lung Adenocarcinoma)
# assayNotes: Bliss excess, mean over the matrix (fraction); higher = more synergy
recordedMetric: Bliss excess

- molecule: "Cc1c2c(nn1C)CSCc1cc(n(C)n1)CSc1cc(c3ccccc3c1)OCCCc1c(C(=O)O)n(C)c3c-2c(Cl)ccc13 [AZD5991] + CC1(C)CCC(CN2CCN(c3ccc(C(=O)NS(=O)(=O)c4ccc(NCC5CCOCC5)c([N+](=O)[O-])c4)c(Oc4cnc5[nH]ccc5c4)c3)CC2)=C(c2ccc(Cl)cc2)C1 [Venetoclax] (first compound max 1 µM, 7x7, partner max 1 µM)"
  recordedMetric: "Bliss excess"
  obsValue: -0.0642
- molecule: "COc1cccc(OCCCN)c1-c1cc(Nc2cnc(C#N)cn2)n[nH]1 [Prexasertib] + C[C@@H]1COCCN1C2=NC(=NC(=C2)C3(CC3)[S@](=N)(=O)C)C4=C5C=CNC5=NC=C4 [AZD6738] (first compound max 1 µM, 7x7, partner max 10 µM)"
  recordedMetric: "Bliss excess"
  obsValue: 0.0241

---

Below, each of the compounds is paired with its reported Bliss excess value.
# Test system: U-2-OS (Osteosarcoma)
# assayNotes: Bliss excess, mean over the matrix (fraction); higher = more synergy

- compound: "COc1nnc2ccc(N3CCC(c4ccc(OCCN5CCN(C)C(=O)[C@H]5C)cc4)CC3)nn12 [AZD5153] + C=CCn1c(=O)c2cnc(Nc3ccc(N4CCN(C)CC4)cc3)nc2n1-c1cccc(C(C)(C)O)n1 [AZD1775] (first compound max 1 µM, partner max 1 µM)"
  Bliss excess: -0.0304
- compound: "CN(CCO)CC[C@H](CSc1ccccc1)Nc1ccc(S(=O)(=O)NC(=O)c2ccc(N3CCC([C@@H](O)c4ccccc4-c4ccc(Cl)cc4)CC3)cc2)cc1S(=O)(=O)C(F)(F)F [AZD4320] + CC(=O)O[C@H]1C(=O)[C@@]2(C)[C@H]([C@H](OC(=O)c3ccccc3)[C@]3(O)C[C@H](OC(=O)[C@H](O)[C@@H](NC(=O)c4ccccc4)c4ccccc4)C(C)=C1C3(C)C)[C@]1(OC(C)=O)CO[C@@H]1C[C@@H]2O [Paclitaxel] (first compound max 1 µM, 7x7, partner max 3 µM)"
  Bliss excess: 0.0272
- compound: "Cc1cc2ncnn2cc1Nc1ncc2c(n1)n(C1CCOCC1)c(=O)n2C [AZD7648] + CN(C)CCCOc1ccc(-c2ccc3ncc4c(c3c2)n(C2CCOCC2)c(=O)n4C)cn1 [AZD0156] (first compound max 10 µM, 7x7, partner max 1 µM)"
  Bliss excess: 0.0103
- compound: "NC1(C(=O)N[C@@H](CCO)c2ccc(Cl)cc2)CCN(c2ncnc3[nH]ccc23)CC1 [Capivasertib] + Cn1cnc2c(F)c(Nc3ccc(Br)cc3Cl)c(C(=O)NOCCO)cc21 [Selumetinib] (first compound max 10 µM, 7x7, partner max 10 µM)"
  Bliss excess: 0.0009
- compound: "COc1nnc2ccc(N3CCC(c4ccc(OCCN5CCN(C)C(=O)[C@H]5C)cc4)CC3)nn12 [AZD5153] + CN(CC[C@H](CSC1=CC=CC=C1)NC2=C(C=C(C=C2)S(=O)(=O)NC(=O)C3=CC=C(C=C3)N4CCC(CC4)[C@H](C5=CC=CC=C5C6=CC=C(C=C6)Cl)O)S(=O)(=O)C(F)(F)F)CCO [AZD4320] (first compound max 1 µM, 7x7, partner max 1 µM)"
  Bliss excess: 0.0178
- compound: "CC1(C)CCC(CN2CCN(c3ccc(C(=O)NS(=O)(=O)c4ccc(NCC5CCOCC5)c([N+](=O)[O-])c4)c(Oc4cnc5[nH]ccc5c4)c3)CC2)=C(c2ccc(Cl)cc2)C1 [Venetoclax] + CN(C)CCCOc1ccc(-c2ccc3ncc4c(c3c2)n(C2CCOCC2)c(=O)n4C)cn1 [AZD0156] (first compound max 1 µM, 7x7, partner max 1 µM)"
  Bliss excess: -0.0107
